# Test system: Calu-3
# Protocol notes: Antiproliferative activity against human Calu-3 cells assessed as reduction in cell viability after 72 hrs by CCK-8 assay
# Format: functional
Result type: GI50 (µM)
The figure you give is taken to be in µM; do not add the unit.

# annotated cases, reported GI50 shown
C=C(C(=O)N1CCN(C(=O)Oc2cc3c(Nc4ccc(Cl)c(Cl)c4F)ncnc3cc2OC)[C@H](C)C1)C(F)(F)F    0.553
C#CC(=O)N1CCN(C(=O)Oc2cc3c(Nc4ccc(Cl)c(Cl)c4F)ncnc3cc2OC)[C@H](C)C1    0.718
CN(C)C/C=C/C(=O)Nc1cc2c(Nc3ccc(F)c(Cl)c3)ncnc2cc1O[C@H]1CCOC1 [AFATINIB]    0.00277

Turning to the following molecule.
I have this molecule here, C=CC(=O)N1C[C@@H]2C[C@H]1CN2C(=O)Oc1cc2c(Nc3ccc(Cl)c(Cl)c3F)ncnc2cc1OC , and I need its recorded GI50. 0.0231
